Tested on: A498 renal
Test: NCI tumour cell line growth inhibition, 48 h; in the data active means GI50 below about 0.43 µM; inactive means the rest
The categories you may choose from are active, inactive

In: For this compound, state the assay outcome: COc1cc(C(=O)N2CCN(c3ncccn3)CC2)c(N)cc1OCc1ccccc1
Out: inactive

In: Another compound to look at: O=C(Nc1ccc(-n2ccc3c(NC(=O)c4ccccc4)nccc32)cc1)Nc1ccc(Cl)c(Cl)c1
Out: inactive

In: Also CCN1C(=O)N(CC)C2C1NN=c1s/c(=C3\C(=O)N(CC(C)(C)C)c4ccccc43)c(=O)n12 (centres undefined) ?
Out: inactive

In: Check O=C(CSC1CCc2ccccc21)N/N=C/c1ccccc1O (centres undefined) too.
Out: inactive

In: Now consider O[C@H](c1cc(C(F)(F)F)nc2c(C(F)(F)F)cccc12)[C@@H]1CCCCN1 .
Out: inactive

====

Test system: EKVX NSCLC
Assay: NCI tumour cell line growth inhibition, 48 h
measurement.type: TGI (µM)
Answers are plain numbers, in µM.

>>> observed("CN(CCO)c1ccc(N2Cc3ccccc3OC3=C2C(=O)c2c(O)ccc(O)c2C3=O)cn1")
1.45

Please turn your attention to the following entry.
In: Sample NC(=O)OCCn1cc(-c2nc(-c3c[nH]c4ncccc34)cs2)c2ccccc21 — what was its TGI?
Out: 7.68

====

Tested on: A549 NSCLC
Experiment: NCI tumour cell line growth inhibition, 48 h
measurement.type: TGI

Recorded TGI, per entry:
>>> observed("O=P1(c2ccccc2)CCCCC1")
"> 100 µM"
>>> observed("CN1C(=O)CSC1=S")
"> 100 µM"
>>> observed("CCCO/S(=N\\S(=O)(=O)c1ccccc1)c1ccccc1[N+](=O)[O-] (stereo not drawn)")
"> 100 µM"
>>> observed("Nc1nc(NCC2(CO)CC2)cc(=O)[nH]1")
"> 100 µM"

I'm hoping you can list TGI for every molecule here, please.
1. c1ccc2nc3c(nc2c1)sc1ccccc13
2. COc1cc(C(C)=O)cc(C(=O)N(C(C)C)C(C)C)c1[Si](C)(C)C
3. O=S(=O)(Nc1ccc(F)cc1F)c1ccc(-c2cnc(C3CC3)o2)cc1

Out:
["> 100 µM", "> 100 µM", "> 100 µM"]

====

System: XF 498 CNS
Experiment: NCI tumour cell line growth inhibition, 48 h
Assignment: determine reported TGI for the given compounds.

# count of solved cases: 3
>>> observed("Cc1ccc(S(=O)(=O)c2ccc(N)cc2)cc1")
"> 100 µM"
>>> observed("Cc1cc(C)nc(NS(=O)(=O)c2ccc(NC(=O)c3cccc4c(Nc5ccc(S(N)(=O)=O)cc5)c5ccccc5nc34)cc2)n1")
"88.2 µM"
>>> observed("COc1c(OC(C)=O)c(OC(C)=O)cc2c1-c1ccc(SC)c(=O)cc1C(NC(C)=O)CC2 (stereo unspecified)")
"> 28.8 µM"

Okay, here is my list. What is TGI for each of these?
1. O=C1NP23(OCCO2)Oc2ccccc2C3(C(F)(F)F)O1 (stereo unspecified)
2. COC(=O)/C=C1\CCC(C)O1 (stereo unspecified)
3. COc1cc(N=Nc2cccc(S(=O)(=O)O)c2)ccc1N=Nc1ccc(/C=C/c2ccc(-n3on3-c3ccc(/C=C/c4ccc(N=Nc5ccc(N=Nc6cccc(S(=O)(=O)O)c6)cc5OC)cc4S(=O)(=O)O)c(S(=O)(=O)O)c3)cc2S(=O)(=O)O)c(S(=O)(=O)O)c1

Out:
["> 100 µM", "> 100 µM", "> 100 µM"]

====

Tested on: SN12C renal
Test: NCI tumour cell line growth inhibition, 48 h
Kindly supply the reported TGI values for the records listed here.

Please review the following examples before continuing.
>>> observed("COC(=O)CC1C=CC(C)(OC)OO1 (stereo unspecified)")
"> 100 µM"
>>> observed("c1ccc([P+](CC[P+](c2ccccc2)(c2ccccc2)c2ccccc2)(c2ccccc2)c2ccccc2)cc1")
"> 100 µM"
>>> observed("NC(=O)OCCn1cc(-c2nc(-c3c[nH]c4ncccc34)cs2)c2ccccc21")
"32.4 µM"
>>> observed("O=C(NCCCl)N(O)C(=O)Nc1ccccc1")
"> 100 µM"

Working through the 8 compounds below one at a time, give TGI for each.
1. OCCCNc1nccc(-c2c(-c3ccc(F)cc3)nn3cc(C(F)(F)F)ccc23)n1
2. C#COc1cccc(Nc2c(C#N)cnc3ncc(NC(=O)CCl)cc23)c1
3. COC(=O)[C@H](Cc1c[nH]c2ccccc12)NC(=O)c1ccc(CNC(=O)/C(C)=C/c2ccccc2)cc1
4. COC(=O)/C=C/c1c(CC=C(C)C)ncn1C
5. Cc1cc(C)c2c(c1)C/C(=C\c1ccccc1C(=O)O)C2=O
6. CC1CC[C@@]2(OC1)OC1C[C@H]3[C@@H]4CC[C@H]5CC(OC6OC(CO)C(O)C(OC7OC(CO)C(OC8OC(CO)C(O)C(OC9OC(CO)C(O)C(O)C9O)C8OC8OC(CO)C(O)C(O)C8O)C(O)C7O)C6O)[C@H](O)CC5(C)[C@H]4CCC3(C)C1[C@@H]2C (stereo partly specified)
7. COc1cccc2cc(C(=O)O)c(=O)oc12
8. CCCCCOc1ccc(/C=N/Nc2cc(C)nc3ccc(Br)cc23)cc1

Out:
["> 25 µM", "> 62.5 µM", "> 100 µM", "> 100 µM", "> 100 µM", "9.03 µM", "> 100 µM", "3.27 µM"]

====

Tested on: COLO 205 colon
Assay: NCI tumour cell line growth inhibition, 48 h
Assignment: determine reported TGI for the given compounds.

Report TGI for each item below.
1. NC(=O)c1cc(S(=O)(=O)Nc2nnc(-c3ccccc3)c(-c3ccccc3)n2)c(SCc2ccccc2)cc1Cl
2. Cc1cc(S(=O)(=O)O)c(NC(=O)C(=O)Cc2cc(=O)oc3cc(O)ccc23)cc1Cl
3. C#COc1cccc(Nc2c(C#N)cnc3ncc(NC(=O)CCl)cc23)c1
4. CN(C)c1ccc(/C=N\NC(=O)Nc2cccc3ccccc23)cc1
5. O=C(/C=C/c1ccccc1Cl)NC1C=Nc2ccc([N+](=O)[O-])cc2NC1 (centres undefined)

Out:
["> 100 µM", "> 100 µM", "> 62.5 µM", "> 100 µM", "> 100 µM"]

Hey, can you go through the list below and give me TGI for every item?
1. CC1C[C@]2(C)C(=NCCN)Nc3ccccc3[C@@H]2N(C)c2ccccc21 (some centres undefined)
2. O=CN1CCN(CC(O)CN2CCCCC2)CC1 (centres undefined)
3. O=C(O)C1C2C=CC(C2)C1c1ccccc1 (centres undefined)
4. CN1C(=O)c2ccccc2OC12C=Cc1ccc(O)cc1O2 (centres undefined)
5. c1ccc(NN=C(c2ccccn2)c2ccccn2)nc1
6. CCC1CCc2c(c(=O)oc3c2cc(OC)c2cccc(OC)c23)C1 (centres undefined)

Out:
5.14 µM
> 100 µM
> 100 µM
65.1 µM
> 100 µM
> 100 µM

Please look at the items below and tell me TGI for each one, in order.
1. Cc1cc(NS(=O)(=O)c2ccc(Nc3c4ccccc4nc4c(C(=O)N5CCN(CCO)CC5)ccc(Cl)c34)cc2)no1
2. COc1ccc(O)c(C(=O)c2ccc(C(=O)N[C@H]3CCCNC[C@@H]3NC(=O)c3ccncc3)cc2)c1F
3. N#CC(C(=O)C(=O)Nc1ccc(Cl)cc1)c1ccccc1 (centres undefined)
4. O=[N+]([O-])/C(C(Cl)=C(Cl)Cl)=C(/Nc1ccccc1)SCc1ccccc1
5. O=C(/N=C/c1c(O)c2ccccc2oc1=O)Oc1ccccc1
6. COc1ccc(-c2csc(Cc3nc4ccccc4c(=O)n3-c3ccc(Cl)cc3)n2)cc1
7. CC1CC[C@@]2(OC1)OC1C[C@H]3[C@@H]4CC[C@H]5CC(OC6OC(CO)C(O)C(OC7OC(CO)C(OC8OC(CO)C(O)C(OC9OC(CO)C(O)C(O)C9O)C8OC8OC(CO)C(O)C(O)C8O)C(O)C7O)C6O)[C@H](O)CC5(C)[C@H]4CCC3(C)C1[C@@H]2C (some centres undefined)

Out:
> 100 µM
> 25 µM
> 100 µM
42.4 µM
> 100 µM
> 100 µM
6.04 µM

In: // lookup TGI for C=C1C(=O)O[C@H]2[C@H]1CC/C(COC(=O)/C=C\C(=O)NCc1ccc(Cn3c(=O)sn(CCCC)c3=O)cc1)=C\CC[C@@]1(C)O[C@@H]21
Out: 2.37 µM

====

System: KM12 colon
Experiment: NCI tumour cell line growth inhibition, 48 h
measurement.type: TGI

>>> observed("Cn1cc(C2=C(c3cccc(Br)c3)C(=O)NC2=O)c2ccccc21")
"> 25 µM"

Each molecule below has a recorded value; state its TGI.
1. O=C(/N=C/c1c(O)c2ccccc2oc1=O)Oc1ccccc1
2. COC1(OC)CC2C(=O)N(Cc3ccccc3)C1C=C2S(=O)(=O)c1ccccc1 (stereo unspecified)
3. CCC(C)C1NC(=O)C(NC(=O)c2c3[nH]c4c(C(=O)NC5C(=O)NC(C(C)CC)C(=O)N6CCCC6C(=O)N(C)CC(=O)N(C)C(C(C)C)C(=O)OC5C)ccc(C)c4oc-3c(C)c(=O)c2=O)C(C)OC(=O)C(C(C)C)N(C)C(=O)CN(C)C(=O)C2CCCN2C1=O (stereo unspecified)
4. CCCCCCOc1ccc(Nc2c(O)c3c(c(O)c2Cl)C(=O)C=CC3=O)cc1
5. [N-]=[N+]=Nc1cc(=O)n2c3c(cccc13)CCC2
6. COc1ccc(-n2c(C)cc(-c3ccccc3)c2C)cc1

Out:
["> 100 µM", "31.6 µM", "> 56.7 µM", "> 7.66 µM", "> 100 µM", "35.3 µM"]

Consider the following items and state reported TGI for each.
1. COc1c[c]([Hg][O]C(C)=O)c(OC)c(NC(=O)CC(C)=O)[c]1[Hg][O]C(C)=O
2. Cc1cc2c(cc1C)C(=O)C1(C2)Cc2c(C)ccc(C)c2C1=O (stereo unspecified)
3. CC(C)CC(NC(=O)C(CI)Cc1ccccc1)C(=O)Nc1ccccc1 (stereo unspecified)
4. COc1cc2c(OC)cc1CSCc1sc(C)c(c1Br)CSC2
5. O=C(Nc1ccc(-n2ccc3c(NC(=O)c4ccccc4)nccc32)cc1)Nc1ccc(Cl)c(Cl)c1
6. COC(=O)[C@]12CCC(C)(C)C[C@H]1[C@H]1C(=O)C=C3[C@@]4(C)C=C(C#N)C(=O)C(C)(C)[C@@H]4CC[C@@]3(C)[C@]1(C)CC2
7. CCn1sc2ccccc2c1=O

Out:
["> 62.1 µM", "> 100 µM", "> 100 µM", "> 100 µM", "2.5 µM", "0.159 µM", "18.8 µM"]
